Reference for the values: patent US6022495A

protocol_notes: Visible lambda max of the activated form in polymer test squares (Varian Cary 3 UV-Visible spectrophotometer)
Assay type: physicochemical
condition_label: activated (colored) form in test square of BPA 2EO DMA / poly(ethylene glycol) 600 dimethacrylate, 1.5×10^-3 molal
Method: Testing was done with the photochromic compounds prepared in Examples 1-11 in the following manner. A quantity of each photochromic compound calculated to yield a 1.5×10^-3 molal solution was added to a flask containing 50 grams of a monomer blend of 4 parts ethoxylated bisphenol A dimethacrylate (BPA 2EO DMA), 1 part poly(ethylene glycol) 600 dimethacrylate, and 0.033 weight percent 2,2'-azobis(2-methyl propionitrile) (AIBN). […]
Please provide measured lambda max (Vis) for the entries that follow.
A bare number is not enough; add the unit after it.

Answered examples (3):
COc1ccc(C2(c3ccccc3)C=Cc3c(c4c5cc(OC)c(OC)cc5c(=O)oc4c4ccccc34)O2)cc1 (stereo not shown): 464 nanometers
O=c1oc2ccccc2c2c1c1c(c3ccccc32)OC(c2ccccc2)(c2ccccc2)C=C1: 484 nanometers
COc1ccc(C2(c3ccccc3)C=Cc3c(c4ccccc4c4c3oc(=O)c3cc(OC)c(OC)cc34)O2)cc1 (stereo not shown): 569 nanometers

Look up lambda max (Vis) for the entries below, preserving their order.
1. COc1ccc(C2(c3ccc(OC)cc3)C=Cc3c(c4c5cc(OC)c(OC)cc5c(=O)oc4c4ccccc34)O2)cc1
2. COc1ccc(C2(c3ccccc3)C=Cc3c4c(c5ccccc5c3O2)-c2cc(OC)c(OC)cc2C(C)(C)O4)cc1 (stereo not shown)
3. COc1ccc(C2(c3ccc(N4CCOCC4)cc3)C=Cc3c(c4ccccc4c4c3oc(=O)c3ccccc34)O2)cc1 (stereo not shown)

1. 477 nanometers
2. 602 nanometers
3. 598 nanometers

Look up and state reported lambda max (Vis) for `COc1ccc(C2(c3ccc(OC)cc3)C=Cc3c(c4c5ccc(OC)cc5c(=O)oc4c4ccccc34)O2)cc1`
478 nanometers
